Recorded values, source ChEMBL document CHEMBL3991601.

Counter-ions that a name gives are not always drawn. Calls of active or inactive are those of the source.
// UniProt:P07949 Kd records
Sequence (P07949 whole entry): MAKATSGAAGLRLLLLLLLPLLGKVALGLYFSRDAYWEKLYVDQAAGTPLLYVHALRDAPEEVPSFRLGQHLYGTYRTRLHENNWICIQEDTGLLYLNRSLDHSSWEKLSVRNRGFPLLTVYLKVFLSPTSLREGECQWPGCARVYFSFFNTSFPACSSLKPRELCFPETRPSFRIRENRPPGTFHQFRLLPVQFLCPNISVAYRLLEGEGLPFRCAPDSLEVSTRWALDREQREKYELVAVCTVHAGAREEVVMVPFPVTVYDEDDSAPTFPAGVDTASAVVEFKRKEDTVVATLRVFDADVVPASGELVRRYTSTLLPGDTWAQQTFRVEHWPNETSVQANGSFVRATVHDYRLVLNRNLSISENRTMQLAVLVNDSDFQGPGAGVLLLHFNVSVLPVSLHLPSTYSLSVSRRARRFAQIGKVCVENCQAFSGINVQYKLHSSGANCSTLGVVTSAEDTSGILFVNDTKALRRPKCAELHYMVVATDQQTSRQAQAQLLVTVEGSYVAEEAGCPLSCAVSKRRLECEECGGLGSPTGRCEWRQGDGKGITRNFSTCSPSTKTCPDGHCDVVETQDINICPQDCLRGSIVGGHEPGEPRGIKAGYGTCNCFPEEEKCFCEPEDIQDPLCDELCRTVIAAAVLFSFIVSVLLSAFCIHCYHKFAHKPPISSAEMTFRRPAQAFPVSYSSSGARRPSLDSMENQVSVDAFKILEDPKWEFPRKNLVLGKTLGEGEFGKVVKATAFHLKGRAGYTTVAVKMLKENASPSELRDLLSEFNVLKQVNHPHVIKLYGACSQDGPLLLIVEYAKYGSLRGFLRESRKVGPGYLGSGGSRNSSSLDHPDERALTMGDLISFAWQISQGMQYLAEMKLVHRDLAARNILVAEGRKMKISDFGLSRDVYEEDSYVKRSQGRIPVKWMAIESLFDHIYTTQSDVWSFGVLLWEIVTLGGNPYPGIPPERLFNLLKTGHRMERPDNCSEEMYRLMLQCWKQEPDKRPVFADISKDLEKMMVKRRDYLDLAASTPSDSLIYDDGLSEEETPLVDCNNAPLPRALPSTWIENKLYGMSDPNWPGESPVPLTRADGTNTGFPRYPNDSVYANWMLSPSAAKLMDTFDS

The cases that follow already have their Kd on record.
compound: CNC(=O)c1cccc2cc(Oc3ccnc4cc(OCC5(N)CC5)c(OC)cc34)ccc12
propertyLabel: Kd
endpointValue: 0.005 µM (active)

compound: Cc1cc(C(=O)NOCCO)c(Nc2ccc(I)cc2F)n(C)c1=O
propertyLabel: Kd
endpointValue: > 30 µM (inactive)

compound: CN1C/C=C/CCOc2cccc(c2)-c2ccnc(n2)Nc2cccc(c2)C1
propertyLabel: Kd
endpointValue: 21.9 µM

q: Form field: reported Kd of O=C(Cc1ccc(-c2ccc(OCCN3CCOCC3)cc2)cn1)NCc1ccccc1
a: > 30 µM (inactive)

q: Moving on to the next compound: C[C@H]1CNCCCN1S(=O)(=O)c1cccc2cncc(F)c12
a: > 30 µM (inactive)

q: Moving on to the next compound: CCS(=O)(=O)N1CCN(c2ccc(Nc3ncc(C(N)=O)c(NC4CC4)n3)cc2)CC1 [Cerdulatinib Hydrochloride]
a: 1.23 µM (active)

q: Moving on to the next compound: CO[C@H]1C[C@@H]2CC[C@@H](C)[C@@](O)(O2)C(=O)C(=O)N2CCCC[C@H]2C(=O)O[C@H]([C@H](C)C[C@@H]2CC[C@@H](O)[C@H](OC)C2)CC(=O)[C@H](C)/C=C(\C)[C@@H](O)[C@@H](OC)C(=O)[C@H](C)C[C@H](C)/C=C/C=C/C=C/1C
a: > 30 µM (inactive)

q: Moving on to the next compound: COCC(=O)NC/C=C/c1ccc2ncnc(Nc3ccc(Oc4ccc(C)nc4)c(C)c3)c2c1
a: > 30 µM (inactive)

q: Moving on to the next compound: CN1CCN(CCOc2cc(OC3CCOCC3)c3c(Nc4c(Cl)ccc5c4OCO5)ncnc3c2)CC1
a: 0.178 µM

q: Moving on to the next compound: CC(=O)c1cnc2ccc(-c3cc(Cl)c(O)c(Cl)c3)nc2c1N[C@H]1CC[C@H](CN(C)C)CC1
a: 0.028 µM (active)

q: Moving on to the next compound: C=CC(=O)Nc1cc2c(Nc3ccc(F)c(Cl)c3)ncnc2cc1C#CC(C)(C)N1CCN(C)CC1 [AV-412 FREE BASE]
a: > 30 µM (inactive)

q: Moving on to the next compound: COc1cc2c(Nc3ccc(Cl)c(Cl)c3F)ncnc2cc1OC[C@@H]1C[C@@H]2CN(C)C[C@@H]2C1
a: 0.064 µM (active)

###

- testedOn: AarF domain-containing protein kinase 1 (Homo sapiens)
- Sequence (Q86TW2 whole entry, the tested form may be a part): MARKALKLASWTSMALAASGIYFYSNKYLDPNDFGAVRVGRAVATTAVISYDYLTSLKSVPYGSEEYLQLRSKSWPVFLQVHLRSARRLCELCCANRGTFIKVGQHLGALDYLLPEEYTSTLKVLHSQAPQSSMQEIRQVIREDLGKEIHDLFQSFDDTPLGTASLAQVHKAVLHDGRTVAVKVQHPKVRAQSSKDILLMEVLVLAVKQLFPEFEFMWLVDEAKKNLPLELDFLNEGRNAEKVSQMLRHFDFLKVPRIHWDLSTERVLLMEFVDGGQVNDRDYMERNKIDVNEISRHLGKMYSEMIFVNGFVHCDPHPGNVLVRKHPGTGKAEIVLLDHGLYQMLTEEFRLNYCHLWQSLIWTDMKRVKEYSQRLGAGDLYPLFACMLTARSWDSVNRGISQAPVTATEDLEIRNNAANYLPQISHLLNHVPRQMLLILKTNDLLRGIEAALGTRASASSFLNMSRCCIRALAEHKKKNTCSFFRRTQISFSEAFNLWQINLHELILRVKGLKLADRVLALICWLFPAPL
Activity calls are given as the source filed them.
Reply using exactly one outcome from active, inactive

Example cases with answers are listed next.
compound: Cn1cnc2c(F)c(Nc3ccc(Br)cc3F)c(C(=O)NOCCO)cc21
discreteLabel: inactive
--
compound: CCS(=O)(=O)c1cccc(-c2cc(C(=O)NC3CCN(C)CC3)c(C)c3[nH]c4ncc(C)cc4c23)c1
discreteLabel: inactive
--
compound: Cc1nc2cc(-c3nn(C(C)C)c4ncnc(N)c34)ccc2o1
discreteLabel: inactive

q: Check the results log: what was the call for COc1cc([C@@H]2c3cc4c(cc3[C@H](O)[C@H]3COC(=O)[C@@H]23)OCO4)cc(OC)c1OC ?
a: inactive

q: Moving on to the next compound: C[C@@H](NC(=O)c1ncnc(N)c1Cl)c1ncc(C(=O)Nc2cc(C(F)(F)F)c(Cl)cn2)s1
a: inactive

q: Moving on to the next compound: CNC(=O)c1cc(Oc2ccc(NC(=O)Nc3cc(C(C)(C)C)nn3-c3ccc4ncccc4c3)c(F)c2)ccn1
a: inactive

q: Moving on to the next compound: O=C(Cc1ccc(-c2ccc(OCCN3CCOCC3)cc2)cn1)NCc1ccccc1
a: inactive

q: Moving on to the next compound: Cc1[nH]c(/C=C2\C(=O)Nc3ccccc32)c(C)c1CCC(=O)O [ORANTINIB]
a: inactive

q: Moving on to the next compound: CCn1cc(-c2ccnc3[nH]c(-c4cccc(CN(C)C)c4)cc23)c(-c2ccc(NC(=O)N(C)C)cc2)n1
a: active
